These measurements were taken from patent US12209079B2.

# Assay system: TDO in A172 cells (Homo sapiens)
# Construct: endogenous in cells; host or cells: A172 cells
# Sequence (P48775 whole entry): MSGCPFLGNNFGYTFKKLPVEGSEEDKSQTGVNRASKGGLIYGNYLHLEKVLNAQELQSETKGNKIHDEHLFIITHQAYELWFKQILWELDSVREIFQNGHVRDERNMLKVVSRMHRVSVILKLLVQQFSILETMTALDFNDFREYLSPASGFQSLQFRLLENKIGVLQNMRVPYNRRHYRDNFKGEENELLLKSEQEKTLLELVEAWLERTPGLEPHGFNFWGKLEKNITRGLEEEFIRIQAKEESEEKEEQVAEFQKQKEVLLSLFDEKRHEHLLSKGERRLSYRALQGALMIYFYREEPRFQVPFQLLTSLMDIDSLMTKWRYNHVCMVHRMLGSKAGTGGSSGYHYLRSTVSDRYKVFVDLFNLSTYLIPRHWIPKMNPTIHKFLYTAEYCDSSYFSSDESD
# Experiment summary: TDO cell-based assay, kynurenine production in A172 cells
# Measurement setup: A 172; final concentration of the compound 10 μM; rate relative to culture without compound
Where a name gives a salt, the structure may show the parent alone.
Measurement type: remaining activity at 10 µM (%)

Compound	Display unit	remaining activity at 10 µM
N#Cc1ccc(CNC(=O)c2cc(Br)ccc2CS/C(N)=N/c2ccc(F)c(Cl)c2)cc1 [Compound 118, hydrobromide]	%	20
c1ccc(CS/C(=N/C2CCCCC2)NC2CCCCC2)c(CS/C(=N/C2CCCCC2)NC2CCCCC2)c1 [Compound 58, dihydrobromide]	%	9
Clc1ccc(CCN2CN=C(SCc3ccccc3CSC3=NCN(CCc4ccc(Cl)cc4)CN3)NC2)cc1	%	0
Clc1cc(CSC2=NCN(CCC3CCCCC3)CN2)c(CSC2=NCN(CCC3CCCCC3)CN2)cc1Cl	%	-11
N/C(=N\c1ccc(Br)cc1)SCc1cc(Cl)c(Cl)cc1CS/C(N)=N/c1ccc(Br)cc1 [Compound 135, dihydrobromide]	%	0
COc1ccc(CNC(=O)c2ccc(Br)cc2CSC(=N)N)cc1 [Compound 102, hydrobromide]	%	38
N=C(N)SCc1cccnc1CSC(=N)N [Compound 34, dihydrobromide]	%	47
Fc1ccc(CN2CN=C(SCc3ccccc3CSC3=NCN(Cc4ccc(F)c(Cl)c4)CN3)NC2)cc1Cl	%	12

A: N#Cc1ccc(CNC(=O)c2ccc(Br)cc2CS/C(N)=N/c2ccc(F)c(Cl)c2)cc1 [Compound 85, hydrobromide]
B: N=C(N)SCc1c(F)c(F)c(F)c(F)c1CSC(=N)N [Compound 6, dihydrobromide]
C: Clc1ccc(CN2CN=C(SCc3ccc(Br)cc3CSC3=NCN(Cc4ccc(Cl)c(Cl)c4)CN3)NC2)cc1Cl
*Q* Put the items in order so that reported remaining activity at 10 µM rises from first to last. Give me the labels in the order the question wants.
*A* C, A, B

I: N/C(=N\c1ccc(F)c(Cl)c1)SCc1cc(Cl)c(Cl)cc1CS/C(N)=N/c1ccc(F)c(Cl)c1 [Compound 134, dihydrobromide]
II: c1ccc(CSC2=NCN(CC3CCCCC3)CN2)c(CSC2=NCN(CC3CCCCC3)CN2)c1
III: N/C(=N\c1ccc(Br)cc1)SCc1ccc(F)cc1CS/C(N)=N/c1ccc(Br)cc1 [Compound 126, dihydrobromide]
*Q* Place the items in sequence of falling remaining activity at 10 µM. Give me the labels in the order the question wants.
*A* III, I, II
(III: 10%, I: 5%, II: 0%)

* * *

# Assay system: rhTDO (recombinant human TDO) (Homo sapiens)
# Experiment summary: Enzyme assay using rhTDO (rate of kynurenine production)
# Type: biochemical
# Measurement setup: 2 h; final concentration of the compound 10 μM; rate relative to reaction without compound; read-out: rhTDO-mediated kynurenine production
Counter-ions that a name gives are not always drawn.
Measurement type: remaining activity at 10 µM (%)

Recorded results for 4 molecules are shown here.
Molecule	remaining activity at 10 µM / %
N=C(N)SCc1ccc(Br)cc1C(=O)NCc1ccc(Br)cc1 [Compound 117, hydrobromide]	9
N=C(N)SCc1cc(Br)ccc1C(=O)NCc1ccc(Cl)cc1Cl [Compound 89, hydrobromide]	12
Fc1ccc(CSC2=NCN(CCc3ccc(C(F)(F)F)cc3)CN2)c(CSC2=NCN(CCc3ccc(C(F)(F)F)cc3)CN2)c1	16
N=C(N)SCc1cc(Br)ccc1C(=O)NCC1CCCCC1 [Compound 74, hydrobromide]	29

A: c1ccc(CCN2CN=C(SCc3ccccc3CSC3=NCN(CCc4ccccc4)CN3)NC2)cc1
B: Brc1ccc(CSC2=NCN(CCC3CCCCC3)CN2)c(CSC2=NCN(CCC3CCCCC3)CN2)c1
C: N/C(=N\c1ccc(Br)cc1)SCc1cc(Br)ccc1C(=O)NCc1ccc(Cl)cc1 [Compound 84, hydrobromide]
D: COc1ccc(/N=C(\N)SCc2ccc(F)cc2CS/C(N)=N/c2ccc(OC)cc2)cc1 [Compound 128, dihydrobromide]
E: Clc1cc(CSC2=NCN(CC3CC3)CN2)c(CSC2=NCN(CC3CC3)CN2)cc1Cl
*Q* Put the items in order so that reported remaining activity at 10 µM rises from first to last. Give me the labels in the order the question wants.
*A* E, B, D, A, C
(E: 4%, B: 6%, D: 14%, A: 36%, C: 65%)

P: Br.Br.N=C(N)SCc1cscc1CSC(=N)N [Compound 15, dihydrobromide]
Q: N#Cc1ccc(CNC(=O)c2cc(Br)ccc2CS/C(N)=N/c2ccc(F)c(Cl)c2)cc1 [Compound 118, hydrobromide]
R: N/C(=N\c1ccc(F)c(Cl)c1)SCc1cc(Br)ccc1C(=O)NCc1ccc(F)cc1 [Compound 88, hydrobromide]
*Q* Place the items in sequence of falling remaining activity at 10 µM. Give me the labels in the order the question wants.
*A* R, Q, P

* * *

# Assay system: IDO in A431 cells (Homo sapiens, UniProt P14902)
# Construct: endogenous in cells; host or cells: A431 cells, IFN-γ stimulated
# Sequence (P14902 whole entry): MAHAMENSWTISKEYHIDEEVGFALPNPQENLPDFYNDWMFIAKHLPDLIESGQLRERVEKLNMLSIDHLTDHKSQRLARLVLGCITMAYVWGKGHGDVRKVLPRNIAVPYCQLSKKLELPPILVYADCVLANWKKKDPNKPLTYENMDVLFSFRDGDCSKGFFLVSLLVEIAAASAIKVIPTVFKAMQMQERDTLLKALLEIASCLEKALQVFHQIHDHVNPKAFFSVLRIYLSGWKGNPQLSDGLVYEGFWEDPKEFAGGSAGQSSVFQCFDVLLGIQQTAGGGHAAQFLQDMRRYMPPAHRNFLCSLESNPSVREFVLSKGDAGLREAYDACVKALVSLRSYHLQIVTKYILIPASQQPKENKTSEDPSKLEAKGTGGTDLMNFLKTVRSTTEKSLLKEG
# Experiment summary: IDO cell-based assay, kynurenine production in IFN-γ stimulated A431 cells
# Measurement setup: A-431, 24 h; final concentration of the compound 10 μM; rate relative to culture without compound
Counter-ions that a name gives are not always drawn.
Measurement type: remaining activity at 10 µM (%)

Compound	Assay system	Display unit	remaining activity at 10 µM
CNC(=O)Cc1ccccc1CSC(=N)N [Compound 62, hydrobromide]	IDO in A431 cells (Homo sapiens, UniProt P14902)	%	86

P: CNC(=O)c1ccc(C#N)cc1CS/C(N)=N/c1ccc(Br)cc1 [Compound 81, hydrobromide]
Q: N=C(N)SCc1cccc(F)c1CSC(=N)N [Compound 13, dihydrobromide]
R: N/C(=N\c1ccc(F)c(Cl)c1)SCc1cc(Cl)c(Cl)cc1CS/C(N)=N/c1ccc(F)c(Cl)c1 [Compound 134, dihydrobromide]
*Q* Put the items in order so that reported remaining activity at 10 µM rises from first to last. Give me the labels in the order the question wants.
*A* R, Q, P

* * *

# Assay system: IDO in A431 cells (Homo sapiens)
# Construct: endogenous in cells; host or cells: A431 cells, IFN-γ stimulated
# Experiment summary: IDO cell-based assay, kynurenine production in IFN-γ stimulated A431 cells
# Measurement setup: A-431, 24 h; final concentration of the compound 10 μM; rate relative to culture without compound
Where a name gives a salt, the structure may show the parent alone.
Measurement type: remaining activity at 10 µM (%)

Recorded results for 5 compounds are shown here.
Compound	Assay system	remaining activity at 10 µM (%)
c1ccc(CCN2CN=C(SCc3ccccc3CSC3=NCN(CCc4ccccc4)CN3)NC2)cc1 [Compound 9]	IDO in A431 cells (Homo sapiens)	10
N=C(N)SCc1ccc(C(F)(F)F)cc1CSC(=N)N [Compound 46, dihydrobromide]	IDO in A431 cells (Homo sapiens)	10
N=C(N)SCc1ccccc1CC(=O)NCC1CC1 [Compound 71, hydrobromide]	IDO in A431 cells (Homo sapiens)	96
Brc1ccc(CS/C(=N/C2CCCCC2)NC2CCCCC2)c(CS/C(=N/C2CCCCC2)NC2CCCCC2)c1 [Compound 57, dihydrobromide]	IDO in A431 cells (Homo sapiens)	3
CNC(=O)c1ccccc1CSC(=N)N [Compound 92, hydrobromide]	IDO in A431 cells (Homo sapiens)	112

a: Cc1ccc(C)c(CCN2CN=C(SCc3ccccc3CSC3=NCN(CCc4cc(C)ccc4C)CN3)NC2)c1 [Compound 24]
b: N=C(N)SCc1nc2ccccc2nc1CSC(=N)N [Compound 5, dihydrobromide]
*Q* Just tell me: smaller remaining activity at 10 µM value, a or b ? State your choice using its label.
*A* a

* * *

# Assay system: TDO in A172 cells (Homo sapiens)
# Construct: endogenous in cells; host or cells: A172 cells
# Experiment summary: TDO cell-based assay, kynurenine production in A172 cells
# Measurement setup: A 172; final concentration of the compound 10 μM; rate relative to culture without compound
Counter-ions that a name gives are not always drawn.
Measurement type: remaining activity at 10 µM (%)

Molecule	Display unit	remaining activity at 10 µM
COc1cccc(CCN2CN=C(SCc3cc(Cl)c(Cl)cc3CSC3=NCN(CCc4cccc(OC)c4)CN3)NC2)c1	%	9

P: Cc1ccc(C)c(CCN2CN=C(SCc3ccccc3CSC3=NCN(CCc4cc(C)ccc4C)CN3)NC2)c1
Q: Fc1ccc(CSC2=NCN(Cc3ccc(F)c(Cl)c3)CN2)c(CSC2=NCN(Cc3ccc(F)c(Cl)c3)CN2)c1
R: Brc1ccc(CCN2CN=C(SCc3ccccc3CSC3=NCN(CCc4ccc(Br)cc4)CN3)NC2)cc1
S: O=C1CC(=O)NC(SCc2ccccc2CSC2=NC(=O)CC(=O)N2)=N1
*Q* Place the items in sequence of falling remaining activity at 10 µM. Give me the labels in the order the question wants.
*A* S, Q, R, P

P: N/C(=N\c1ccc(F)cc1F)SCc1cc(Cl)c(Cl)cc1CS/C(N)=N/c1ccc(F)cc1F [Compound 63, dihydrobromide]
Q: COc1ccc(CN2CN=C(SCc3ccccc3CSC3=NCN(Cc4ccc(OC)cc4OC)CN3)NC2)c(OC)c1
*Q* Returns: the argument ( P or Q ) having the larger remaining activity at 10 µM. State your choice using its label.
*A* P

I: c1cnc(SCc2ccccc2CSc2ncccn2)nc1
II: N/C(=N\c1ccc(Br)cc1)SCc1cc(Br)ccc1C(=O)NCc1ccc(Cl)cc1 [Compound 84, hydrobromide]
*Q* Just tell me: smaller remaining activity at 10 µM value, I or II ? State your choice using its label.
*A* II
(II: 18%, I: 74%)
